- Tested on: PRKAA1
- Design: species or system human, MV4-11 + K-562 + COLO205 + SK-N-BE2 + OVCAR-8
- details: read-out: apparent Kd; compound concentrations:100 nM and 1000 nM (sheet 'Samples'); n = 1
One threshold, 800 nM, splits the recorded potency estimated from few doses values: lower ones are true (1), equal or higher ones are false (0).

### Prompt potency estimated from few doses strictly < 800 nM for this molecule? COc1cc2ncn(-c3cc(OCCCc4ccccc4)c(C(N)=O)s3)c2cc1OC [GSK205189A]
### Response false (0)

### Prompt potency estimated from few doses strictly < 800 nM for this molecule? CNC(=O)c1ccccc1Nc1nc(Nc2ccc(N3CCOCC3)cc2)ncc1Cl.Cl [GSK1576028A]
### Response true (1)

### Prompt potency estimated from few doses strictly < 800 nM for this molecule? CC(C)N1CCC(n2cnc(-c3ccc(F)cc3)c2-c2ccnc(N)n2)CC1
### Response true (1)

### Prompt potency estimated from few doses strictly < 800 nM for this molecule? O=C1NC(=O)C(N2CCc3ccccc32)=C1c1ccccc1Cl
### Response true (1)

### Prompt potency estimated from few doses strictly < 800 nM for this molecule? Cc1ccc2c(-c3ccncc3)c(-c3ccc(F)cc3)nn2c1.Cl [GW461484A]
### Response true (1)

---

- Tested on: PRKACA;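 also: competition pulldown with Kinobeads ε in cell lysates, inhibitor preincubated 45 min at 4 °C, bound kinases quantified by LC–MS/MS against DMSO control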
- Set-up: species or system human, MV4-11 + K-562 + COLO205 + SK-N-BE2 + OVCAR-8
- details: read-out: apparent Kd; compound concentrations:0.3nM, 1nM, 3nM, 10nM, 30nM, 100nM, 300nM, 1000nM,R2:0.96854382612038603,slope:0.55494475064464099,EC50 Standard Error, by the legend:Standard error of the EC50 estimation as provided by the drc package.
quantity: pKd
// field semantics: pKd = negative decimal log of concentration (mol/L)

### Prompt Look up pKd of CCn1c(-c2nonc2N)nc2c(C#CC(C)(C)O)nc(OCCN)cc21.CCn1c(-c2nonc2N)nc2c(C#CC(C)(C)O)nc(OCCN)cc21.Cl.Cl [GSK902056A] and report it.
### Response 6.67

---

Please respond with reported potency estimated from few doses for every item in the list.
- Test system: PTK2B
- Set-up: species or system human, MV4-11 + K-562 + COLO205 + SK-N-BE2 + OVCAR-8
- details: read-out: apparent Kd; compound concentrations:100 nM and 1000 nM (sheet 'Samples'); n = 1
Quick note: give the figure in nM, leave out the unit.

### Prompt Look up potency estimated from few doses of O=C1NC(=O)C(N2CCc3ccccc32)=C1c1ccccc1Cl and report it.
### Response 129

### Prompt Look up potency estimated from few doses of Cl.Cn1c(=O)c(Cc2ccc(F)cc2F)cc2cnc(NC3CCOCC3)nc21 and report it.
### Response 456

### Prompt Look up potency estimated from few doses of Cc1ccc2c(-c3ccncc3)c(-c3ccc(F)cc3)nn2c1.Cl [GW461484A] and report it.
### Response 354

### Prompt Look up potency estimated from few doses of CNC(=O)c1ccccc1Nc1nc(Nc2ccc(N3CCOCC3)cc2)ncc1Cl.Cl [GSK1576028A] and report it.
### Response 41.8

---

- Test system: PTK2B
- Parameters: species or system human, MV4-11 + K-562 + COLO205 + SK-N-BE2 + OVCAR-8
- details: read-out: apparent Kd; compound concentrations:100 nM and 1000 nM (sheet 'Samples'); n = 1
quantity: potency estimated from few doses (nM)
Quick note: give the figure in nM, leave out the unit.

### Prompt Look up potency estimated from few doses of O=C(O)C(F)(F)F.O=c1[nH]ccc2nc(N[C@@H]3CCNC3)nc(Nc3cc(Cl)cc(Cl)c3)c12 [GSK2188764A] and report it.
### Response 46.7

### Prompt Look up potency estimated from few doses of COc1cc(N2CCN(C(C)C)CC2)ccc1Nc1nc(Nc2ccc(F)cc2C(=O)NC[C@@H](O)CO)c2cc[nH]c2n1 [GSK1392956A] and report it.
### Response 188

### Prompt Look up potency estimated from few doses of NCCNS(=O)(=O)c1ccc(-c2ccnc3[nH]ccc23)cc1 [GSK977617A] and report it.
### Response 335

---

- Tested on: TNK1
- Parameters: species or system human, MV4-11 + K-562 + COLO205 + SK-N-BE2 + OVCAR-8
- details: read-out: apparent Kd; compound concentrations:100 nM and 1000 nM (sheet 'Samples'); n = 1
potency estimated from few doses of 0.2 µM or higher: rule met. Under 0.2 µM: rule not met.

### Prompt Answer whether potency estimated from few doses of NCCNS(=O)(=O)c1ccc(-c2ccnc3[nH]ccc23)cc1 [GSK977617A] is greater than or equal to 0.2 µM.
### Response rule not met

### Prompt Answer whether potency estimated from few doses of COc1cc(N2CCN(C(C)C)CC2)ccc1Nc1nc(Nc2ccc(F)cc2C(=O)NC[C@@H](O)CO)c2cc[nH]c2n1 [GSK1392956A] is greater than or equal to 0.2 µM.
### Response rule met

### Prompt Answer whether potency estimated from few doses of Cl.Cn1c(=O)c(Cc2ccc(F)cc2F)cc2cnc(NC3CCOCC3)nc21 is greater than or equal to 0.2 µM.
### Response rule not met

### Prompt Answer whether potency estimated from few doses of CN1CCC(C(=O)Nc2n[nH]c3nc(-c4ccc(O)cc4)c(Br)cc23)CC1.O=C(O)/C=C\C(=O)O is greater than or equal to 0.2 µM.
### Response rule met

### Prompt Answer whether potency estimated from few doses of CNC(=O)c1ccccc1Nc1nc(Nc2ccc(N3CCOCC3)cc2)ncc1Cl.Cl [GSK1576028A] is greater than or equal to 0.2 µM.
### Response rule not met

### Prompt Answer whether potency estimated from few doses of CN1CCN(C(=O)c2ccc(NC(=O)Nc3ccc(N(C)c4ccnc(Nc5ccc(CS(C)(=O)=O)cc5)n4)cc3)cc2)CC1.Cl [GW830263A] is greater than or equal to 0.2 µM.
### Response rule met

### Prompt Answer whether potency estimated from few doses of CC(=O)N[C@@H](Cc1ccc(OP(=O)(O)O)cc1)C(=O)N[C@H]1CCC(=O)N2CCC[C@@H](C(=O)NCc3ccc(Cl)cc3)N2C1=O is greater than or equal to 0.2 µM.
### Response rule met

### Prompt Answer whether potency estimated from few doses of CCN(CC)CCOc1ccc(Nc2ncc3cc(-c4c(Cl)cccc4Cl)c(=O)n(C)c3n2)cc1 is greater than or equal to 0.2 µM.
### Response rule met

### Prompt Answer whether potency estimated from few doses of Cl.Cl.NCC(C(=O)Nc1cc(Br)c(-c2ccnc3[nH]ccc23)s1)c1ccccc1.NCC(C(=O)Nc1cc(Br)c(-c2ccnc3[nH]ccc23)s1)c1ccccc1 (centres unmarked) [GSK1269851A] is greater than or equal to 0.2 µM.
### Response rule not met

### Prompt Answer whether potency estimated from few doses of CS(=O)(=O)Cc1ccc(Nc2nccc(-c3c(-c4cccc(NC(=O)C5CCCCC5)c4)nn4ncccc34)n2)cc1 [GSK350559A] is greater than or equal to 0.2 µM.
### Response rule met

### Prompt Answer whether potency estimated from few doses of CC(C)c1nc(-c2ccc(F)c(NS(=O)(=O)c3c(F)cccc3F)c2)c(-c2ccnc(Nc3ccc(N4CCOCC4)nc3)n2)s1 [GSK1804250A] is greater than or equal to 0.2 µM.
### Response rule met

### Prompt Answer whether potency estimated from few doses of CS(=O)(=O)CCn1c(=O)c(Oc2ccc(F)cc2F)cc2cnc(NC3CCOCC3)nc21 is greater than or equal to 0.2 µM.
### Response rule met

### Prompt Answer whether potency estimated from few doses of Cc1ccc2c(-c3ccncc3)c(-c3ccc(F)cc3)nn2c1.Cl [GW461484A] is greater than or equal to 0.2 µM.
### Response rule met

### Prompt Answer whether potency estimated from few doses of COc1cc2ncn(-c3cc(OCCCc4ccccc4)c(C(N)=O)s3)c2cc1OC [GSK205189A] is greater than or equal to 0.2 µM.
### Response rule not met

---

- System: PTK2B
- Parameters: species or system human, MV4-11 + K-562 + COLO205 + SK-N-BE2 + OVCAR-8
- details: read-out: apparent Kd; compound concentrations:100 nM and 1000 nM (sheet 'Samples'); n = 1
Please respond with reported potency estimated from few doses for every item in the list.
Quick note: give the figure in µM, leave out the unit.

### Prompt Look up potency estimated from few doses of Cl.Cl.NCC(C(=O)Nc1cc(Br)c(-c2ccnc3[nH]ccc23)s1)c1ccccc1.NCC(C(=O)Nc1cc(Br)c(-c2ccnc3[nH]ccc23)s1)c1ccccc1 (stereo not drawn) [GSK1269851A] and report it.
### Response 0.0631

### Prompt Look up potency estimated from few doses of CC(=O)N[C@@H](Cc1ccc(OP(=O)(O)O)cc1)C(=O)N[C@H]1CCC(=O)N2CCC[C@@H](C(=O)NCc3ccc(Cl)cc3)N2C1=O and report it.
### Response 0.367

### Prompt Look up potency estimated from few doses of CS(=O)(=O)CCn1c(=O)c(Oc2ccc(F)cc2F)cc2cnc(NC3CCOCC3)nc21 and report it.
### Response 0.417
